Hey, just so you know, these numbers are from ChEMBL document CHEMBL4699493.

Measured MIC accompanies every entry in the list below.
# Tested on: Staphylococcus epidermidis
# measurementDescription: Antibacterial activity against methicillin-resistant Staphylococcus epidermidis RP62A
# Type: functional
endpointLabel: MIC (µg/mL)

>  <smilesText>
CCCCCCCCCC(=O)N[C@@H](CCCCNC(=N)N)CN1CC(=O)N(c2ccc(N3CN(C[C@H](CCCCNC(=N)N)NC(=O)CCCCCCCCC)CC3=O)cc2)C1

>  <op>
=

>  <assayValue>
5

$$$$
>  <smilesText>
CCCCCC(=O)N[C@@H](CCCCN)CN1CC(=O)N(c2ccc(N3CN(C[C@H](CCCCN)NC(=O)CCCCC)CC3=O)cc2)C1

>  <op>
>

>  <assayValue>
25

$$$$
>  <smilesText>
CCCCCCCCCCCCCCCC(=O)N[C@@H](CCCCN)CN1CC(=O)N(c2ccc(N3CN(C[C@H](CCCCN)NC(=O)CCCCCCCCCCCCCCC)CC3=O)cc2)C1

>  <op>
>

>  <assayValue>
25

$$$$
>  <smilesText>
CCCCCCCC(=O)N[C@@H](CCCCN)CN1CC(=O)N(c2ccc(N3CN(C[C@H](CCCCN)NC(=O)CCCCCCC)CC3=O)cc2)C1

>  <op>
>

>  <assayValue>
25

$$$$
>  <smilesText>
NCCCC[C@@H](CN1CC(=O)N(c2ccc(N3CN(C[C@H](CCCCN)NC(=O)Cc4ccc5ccccc5c4)CC3=O)cc2)C1)NC(=O)Cc1ccc2ccccc2c1

>  <op>
>

>  <assayValue>
25

$$$$
>  <smilesText>
CCCCCCCCCC(=O)N[C@@H](Cc1ccccc1)CN1CC(=O)N(c2ccc(N3CN(C[C@H](Cc4ccccc4)NC(=O)CCCCCCCCC)CC3=O)cc2)C1

>  <op>
>

>  <assayValue>
25

$$$$
>  <smilesText>
CCCCCCCCCCCCCC(=O)N[C@@H](CCCCN)CN1CC(=O)N(c2ccc(N3CN(C[C@H](CCCCN)NC(=O)CCCCCCCCCCCCC)CC3=O)cc2)C1

>  <op>
>

>  <assayValue>
25

$$$$
>  <smilesText>
CCCCCCCCCC(=O)N[C@@H](CCCCN)CN1CC(=O)N(c2ccc(N3CN(C[C@H](CCCCN)NC(=O)CCCCCCCCC)CC3=O)cc2)C1

>  <op>
=

>  <assayValue>
5

$$$$
>  <smilesText>
N=C(N)NCCCC[C@@H](CN1CC(=O)N(c2ccc(N3CN(C[C@H](CCCCNC(=N)N)NC(=O)CC45C[C@H]6C[C@@H](C4)C[C@@H](C5)C6)CC3=O)cc2)C1)NC(=O)CC12C[C@H]3C[C@@H](C1)C[C@@H](C2)C3

>  <op>
=

>  <assayValue>
2

$$$$
>  <smilesText>
CCCCCCCCCC(=O)N[C@@H](CCCCN)CNCC(=O)Nc1ccc(NC(=O)CNC[C@H](CCCCN)NC(=O)CCCCCCCCC)cc1

>  <op>
=

>  <assayValue>
2

$$$$
>  <smilesText>
NCCCC[C@@H](CN1CC(=O)N(c2ccc(N3CN(C[C@H](CCCCN)NC(=O)CC45C[C@H]6C[C@@H](C4)C[C@@H](C5)C6)CC3=O)cc2)C1)NC(=O)CC12C[C@H]3C[C@@H](C1)C[C@@H](C2)C3

>  <op>
>

>  <assayValue>
25

$$$$
>  <smilesText>
O=C(O)c1cn(C2CC2)c2cc(N3CCNCC3)c(F)cc2c1=O

>  <op>
=

>  <assayValue>
0.15

$$$$
>  <smilesText>
NCCCC(=O)N[C@@H](Cc1ccccc1)CN1CC(=O)N(c2ccc(N3CN(C[C@H](Cc4ccccc4)NC(=O)CCCN)CC3=O)cc2)C1

>  <op>
>

>  <assayValue>
25

$$$$
>  <smilesText>
CCCCCCCCCCCC(=O)N[C@@H](CCCCN)CN1CC(=O)N(c2ccc(N3CN(C[C@H](CCCCN)NC(=O)CCCCCCCCCCC)CC3=O)cc2)C1

>  <op>
=

>  <assayValue>
2

$$$$
